system: Plasmodium berghei; assay: Screen against P. berghei liver stage (PbLuc), transformed with Luciferase, at 10uM; assay type: functional, HepG2; conditions: tested at 10 uM
Screen size: about 69,000 compounds; about 8,600 (12%) showed an effect of 50% or more. The full list was thinned out, with strong results kept by preference.
Classify on INHIBITION using low: < 10%; medium: ≥ 10% and < 40%; high: ≥ 40%

Here's what some known entries look like.
COMPOUND	ASSAY SYSTEM	CATEGORY LABEL
Cc1ncsc1CN1CCOC(C)(C(=O)N(C)C)C1 (configuration not stated)	Plasmodium berghei	medium
COc1ccc(F)cc1C(=O)N1C[C@@H]2CC[C@H]1CN(c1ncccn1)C2	Plasmodium berghei	medium
CSCC(CCO)NC(=O)c1cccc(Cl)c1F (configuration not stated)	Plasmodium berghei	medium
Cc1cnc(CN2C[C@H]3CC(Oc4ccccc4)C[C@H]3C2)cn1 (some centres not stated)	Plasmodium berghei	medium
Cc1cccc(CN2CCCC(O)(CNCCc3c[nH]cn3)C2=O)c1 (configuration not stated)	Plasmodium berghei	high
CN(CC(N)=O)C(=O)C1Cc2cc(Cl)ccc2O1 (configuration not stated)	Plasmodium berghei	low
CN(CCCO)C(=O)c1ccc2c(c1)nc(N1CC[C@H](O)C1)n2C	Plasmodium berghei	low
CSCC(CCO)NC(=O)c1cccc(F)c1Cl (configuration not stated)	Plasmodium berghei	high

Okay, now this compound:
Pick a category. Item: CSCC(CCO)Nc1cccc(C(F)(F)F)n1 (configuration not stated) medium

====

tested on: Plasmodium berghei; assay: Screen against P. berghei liver stage (PbLuc), transformed with Luciferase, at 10uM; type: functional, HepG2; details: tested at 10 uM
The whole screen tested about 69,000 compounds, of which about 8,600 (12%) showed an effect of 50% or more. The full list was thinned out, with strong results kept by preference.
INHIBITION strictly less than 20% = met. Otherwise not met.

Worked set:
MOLECULE	CATEGORY LABEL
Cc1nc(CN2CCCCC2Cn2cncn2)nc2ccccc12 (stereo not drawn)	not met
COCCCC1(C(=O)O)CCCN(Cc2cc3c(cc2C)OCCO3)C1 (stereo not drawn)	met
COCc1cnc2n1CCN(C(=O)c1oc3ccccc3c1C)C2C (stereo not drawn)	not met
COc1cccc(CN2CCC(Cc3cnc(CN(C)C)cn3)CC2)c1	not met
Cc1ccccc1C1(C(=O)N2CCCC(n3cncn3)C2)CC1 (stereo not drawn)	not met
CCn1ccnc1CN1CCN(c2cc(C)nc(C3CCCN3)c2)CC1 (stereo not drawn)	met
COc1ccccc1OCCN1CCCCC1Cn1cncn1 (stereo not drawn)	not met
Nc1nc(CN2CCCCC2Cn2cncn2)nc2ccccc12 (stereo not drawn)	not met

Let's switch to this molecule now.
Is INHIBITION of Cn1ncc2c1C(COCC1CC1)CN(Cc1ccsc1)C2 (stereo not drawn) strictly below 20%? met

====

system: Plasmodium berghei; assay: Screen against P. berghei liver stage (PbLuc), transformed with Luciferase, at 10uM; assay type: functional, HepG2; conditions: tested at 10 uM
Out of some 69,000 compounds screened, about 8,600 (12%) showed an effect of 50% or more. The sample as a whole holds a higher share of strong results than the screen did.
MEASURED QUANTITY: INHIBITION (%)
Give the quantity in %, number only.

The following compounds have reported results that may help.
COMPOUND	INHIBITION (%)
CCCS(=O)(=O)CC(=O)Nc1cc(CC(C)(C)C)n[nH]1	-45.9
Cc1ccc(NC(=O)Nc2c[nH]c(=O)[nH]c2=O)c(Cl)c1	3.77
COCCNC(=O)CN(C)CCn1nc2ccccn2c1=O	23.8

Look up and state reported INHIBITION for Cc1ccc(NC(=O)Nc2c[nH]c(=O)[nH]c2=O)c(C)c1 50.8

Provide INHIBITION value for the following compound: CC(=O)c1ccc(-c2cnn(CC(=O)Nc3ccnn3C)c2)nc1 46.1

Tell me its INHIBITION given COCCNC(=O)c1ccc(NCc2csc(C)n2)cc1Cl as the entry. 16

Query INHIBITION for CC1c2ncc(Cn3cncn3)n2CCN1CC1CCOCC1 (configuration not stated) -8.28

Entry Cc1nn(C)c(N(C)C)c1CNCCCN(C(C)C)S(C)(=O)=O needs its INHIBITION filled in; supply it. 6.15

Give the reported INHIBITION for this compound. Cn1ccnc1-c1cnn(CC(=O)Nc2ccnn2C)c1 62.4

Tell us which INHIBITION value is on record for CN(C)C(=O)CN1CCC2(C1)CN(CC1CCOC1)C2 (configuration not stated) 8.31

Specify INHIBITION for Cc1ccc(C)c(NC(=O)Nc2c[nH]c(=O)[nH]c2=O)c1 and stop. 29.2

Name the recorded INHIBITION of the compound listed here: O=C1N(CC2CCCC2)CCC12CCN(c1ncc(F)cn1)CC2 8.74

====

test system: Plasmodium berghei; test: Screen against P. berghei liver stage (PbLuc), transformed with Luciferase, at 10uM; assay type: functional, HepG2; details: tested at 10 uM
Screen size: about 69,000 compounds; about 8,600 (12%) showed an effect of 50% or more. The full list was thinned out, with strong results kept by preference.
Label 1 when INHIBITION >= 40%; otherwise -1.

Solved cases (5 shown):
COMPOUND	CATEGORY LABEL
c1n[nH]cc1CCCN1CCC(OC2CCCCC2)CC1	-1
Cc1nn(C)cc1CN1CCCC(n2c(=O)oc3ccccc32)C1 (stereo unspecified)	1
CC(C)(C)CC(=O)NCC(=O)Nc1ccn(CCCn2ccnc2)n1	-1
CC(C)(NS(C)(=O)=O)c1nc(-c2ccc(F)cc2Cl)no1	-1
Cc1nn(C)cc1Cn1c(=O)cnc2ccccc21	1

Lab note: next compound to report on.
Does the reported INHIBITION for Cc1ccnc(NC(=O)C2CCN(CCCc3cn[nH]c3)CC2)c1 fall at or above the 40% mark? 1

====

test system: Plasmodium berghei; experiment: Screen against P. berghei liver stage (PbLuc), transformed with Luciferase, at 10uM; format: functional, HepG2; conditions: tested at 10 uM
Screen size: about 69,000 compounds; about 8,600 (12%) showed an effect of 50% or more. What follows is part of a selection rich in strong results, with near analogues and random picks from the rest.
MEASURED QUANTITY: INHIBITION (%)
Dear colleague, please return just the value in %, with no unit written.

MOLECULE	INHIBITION / %
Cc1ccc(CNC(=O)N2CCOCC2C2CC2)cc1F (centres undefined)	49.3

Identify measured INHIBITION associated with CCO[C@H]1CO[C@@]2(CCCN(Cc3nc(C)cs3)C2)C1 11.8

Look up and state reported INHIBITION for O=S1(=O)NC(c2ccnc(N3CCCCC3)n2)=Nc2ccccc21 25.8

Please report INHIBITION for the following molecule: CC(C)(C)c1ccc(C2(C(=O)NCCS(C)(=O)=O)CC2)cc1 62.3

Report INHIBITION for Cc1csc2ncc(-c3ccnc(N4CCCC4)n3)c(=O)n12 -71.6

Read off the recorded INHIBITION for Cc1csc2ncc(-c3ccnc(N4CCCN(C)CC4)n3)c(=O)n12 26.3

Kindly indicate its recorded INHIBITION. Item: COc1ccc(CNC(=O)N2CCOCC2C2CC2)cc1C (centres undefined) 66.7

Name the recorded INHIBITION of the molecule listed here: CCc1ccc(NC(=O)CCN2CC(n3nc(C)cc3C)C2)cc1 52.6

Output INHIBITION of CN1CCCN(c2nccc(-c3cc(C(=O)O)ccn3)n2)CC1 41.4

State its INHIBITION: OCCNc1nccc(-c2cn3nccc3nc2C2CCCCC2)n1 39.7

Return INHIBITION (reported value) for this molecule: c1cnc(N2CCOC3(CCN(CC4CCOC4)CC3)C2)nc1 (centres undefined) 8.64

Give the measured INHIBITION for CCNc1cc2c(nn1)CCN(C(=O)c1ccnc(C)n1)C2 7.75

Provide one value: measured INHIBITION of CC(C)(C)c1ccc(C2(C(=O)NCCCS(C)(=O)=O)CC2)cc1 43.5

Identify measured INHIBITION associated with Cc1cc(C)n(C2CN(CCC(=O)NCCc3ccccc3)C2)n1 36.3

Look up and report measured INHIBITION for this entry: COCCCNC(=O)Nc1cccc2c1CCN(S(C)(=O)=O)C2 17.5

====

system: Plasmodium berghei; experiment: Screen against P. berghei liver stage (PbLuc), transformed with Luciferase, at 10uM; assay type: functional, HepG2; conditions: tested at 10 uM
In all, about 69,000 compounds went through this assay and about 8,600 (12%) showed an effect of 50% or more. The list comes from a sample in which strong results are over-represented; it also holds close analogues and randomly drawn compounds.
Please respond with true when measured INHIBITION is strictly beneath 20%, and with false in all other cases.

As a guide, the following entries are already answered.
CHEM SMILES	CATEGORY LABEL
Cc1nc(CN2CCO[C@@H]3CN(Cc4nccs4)C[C@@H]3C2)cs1	true
Cc1occc1C(=O)N1C[C@H](Oc2ccccn2)[C@H]2OCCC[C@H]21	false
CC(C)n1ccnc1CN1CCCN(C(=O)c2cscn2)CC1	false
Cc1[nH]ncc1C(=O)N1CCCN(Cc2nccn2C(C)C)CC1	false

API: the following record is the query input.
# TODO verify INHIBITION < 20% strictly for this compound: CC(=O)NCCNC(=O)c1cc(COc2ccccc2)[nH]n1 true
